Item-by-item account of composite z-score
assayOverview: probe aWnt5a binding to arrayed compounds – biochemical, biotinylated probe, 635/667 nm fluorescence, primary screen (AID 1113);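 further: score merges 667 nm fluorescence intensity with signal-to-noise per printed feature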
experimentalContext: small-molecule microarray, higher = more signal
Give the figure by itself; no unit, no explanation.

Guide cases for composite z-score, answers given:
C=CC[C@]1(C(=O)NCC(O)CO)N=C(c2ccc(OCCCO)cc2)O[C@H]1c1ccccc1N=[N+]=[N-] (some centres not stated); 0.106
[N-]=[N+]=Nc1ccccc1C[C@]1(C(=O)NCCN2CCOCC2)N=C(c2ccc(OCCCO)cc2)O[C@H]1c1ccccc1N=[N+]=[N-]; 0.136
COCCCNC(=O)[C@]1(CCS(=O)(=O)c2ccccc2)N=C(c2ccc(OCCCO)cc2)O[C@@H]1c1ccccc1; 0.0179
COC(=O)C(CC#Cc1ccc2c(c1)[C@]1(C(=O)N2)[C@H](c2ccc(O)cc2)N2[C@H](c3ccccc3)[C@H](c3ccccc3)OC(=O)[C@H]2[C@@H]1C(N)=O)C(=O)OC; -0.202
CC(C)CNC(=O)[C@@]1(c2ccc([N+](=O)[O-])cc2)CC(=O)N(C(C)C)[C@@H]1c1ccc(CO)cc1; -0.12

The compound listed as `C=C(/C(=C/C[C@@H](OC(=O)c1ccncc1)c1ccccc1OCCO)c1cnc2ccccc2c1)C(C)C` shows composite z-score equal to 0.0044

GET /value?item= `COCCOC(=O)N1C(=O)[C@@]2(c3cc(C#Cc4ccc(OC)cc4)ccc31)[C@H](c1ccc(OCCO)cc1)N1[C@H](c3ccccc3)[C@H](c3ccccc3)OC(=O)[C@H]1[C@@H]2C(N)=O` &field=composite z-score returns -0.0792

----------
assayOverview: probe aNog binding to arrayed compounds – biochemical, biotinylated probe, 635/667 nm fluorescence, primary screen (AID 1115);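 further: probe is biotinylated aNog protein used at 0.15 µg/mL for 1 h at 4 C; z-score combines 667 nm fluorescence of each spot with its signal to noise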
experimentalContext: small-molecule microarray, higher = more signal
measurementType: composite z-score
Keep the answer to the number alone.

Some compounds with recorded composite z-score:
COCC(=C=CC[C@@H](O)c1ccccc1OCCO)C[C@@H](O)c1ccccn1; 0.099
O=C1O[C@H](c2ccccc2)[C@H](c2ccccc2)N2[C@H]1[C@@H](C(=O)NC[C@H](O)c1ccccc1)[C@]1(C(=O)Nc3ccccc31)[C@H]2c1ccccc1OCCO; 2.84
C[C@]12C(=O)N(CCCO)[C@@H]3C(=O)N(c4ccc(Cl)cc4)CC=CC31O[C@@H]1/C=C\CCCOC(=O)C12 (stereo partly specified); 0.309

Sure, the documented composite z-score for `NC(=O)[C@H]1[C@@H]2C(=O)O[C@@H](c3ccccc3)[C@@H](c3ccccc3)N2[C@@H](c2ccc(O)cc2)[C@]12C(=O)Nc1ccc(C#CC3(O)CCCCCC3)cc12` is -0.327

composite z-score reported for this compound `CN(C)CCCC[C@@H]1NC(=O)[C@H]2C[C@@H](C(=O)NCCCCCCNC(=O)CS)[C@@H](c3ccc(O)cc3)N2C1=O` : -0.541

// composite z-score lookup, compound = `COCCOC(=O)N1C(=O)[C@@]2(c3cc(C#Cc4ccc(OC)cc4)ccc31)[C@H](C(=O)N1CCc3cc(OC)c(OC)cc3C1)[C@H]1C(=O)O[C@H](c3ccccc3)[C@H](c3ccccc3)N1[C@@H]2c1ccc(O)cc1` , result: -0.407

----------
testTarget: Torsin-1A (Homo sapiens)
assayOverview: TOR1A wild-type binding on microarray – cell lysate, small-molecule microarray, lysate, 635/667 nm, primary screen (AID 1149)
experimentalContext: COS7 hTOR1A-WT lysate, 635 nm fluorescence, higher = more signal
Criterion: composite z-score meeting or surpassing 0.4. Met: met. Not met: not met.

[N-]=[N+]=NCc1ccccc1[C@H]1OC(c2ccc(OCCCO)cc2)=N[C@@]1(Cc1ccccc1N=[N+]=[N-])C(=O)NCCN1CCOCC1; not met
COC(=O)[C@@]1(Cc2ccccc2)[C@H]2c3cc(C(=O)N4CCCC4)n(CCO)c3C[C@H]2CN1C(=O)c1ccccc1; met
C=C(COC)/C(=C/C[C@@H](OC(=O)c1ccncc1)c1cccc(OCCO)c1)c1cc(C(=O)OC)ccc1OC; met
C[N+](C)(C)CCCC[C@@H]1NC(=O)[C@H]2C[C@@H](C(=O)NCCCCCCN)[C@@H](c3cccc(OCCO)c3)N2C1=O; met
CCOC(=O)C1=CC[C@@H](c2cccc(Br)c2)N(S(=O)(=O)c2ccc(C)cc2)[C@H]1c1ccc([N+](=O)[O-])cc1; met
COC(=O)[C@@]1(Cc2ccccc2)[C@H]2c3cc(C(=O)N4CCCC4)n(Cc4ccccc4)c3C[C@H]2CN1C(=O)c1ccccc1; not met
OCc1ccc(-c2cc[n+](Cc3cccc(OC(F)(F)F)c3)cc2)cc1; met
CCOC(=O)C[C@H]1[C@H](OC(=O)Cc2ccc3c(c2)OCO3)[C@@H](NC(=O)c2ccccc2)c2cc(OCCCO)ccc2N1C(=O)c1ccc2ccccc2n1; not met
CCCC=C(CCC)[C@@H](NS(=O)(=O)c1cccc2cccnc12)c1ccc(C(=O)OC)cc1; not met
COC(=O)C(CC#Cc1ccc2c(c1)[C@]1(C(=O)N2)[C@H](C(=O)N2CCc3cc(OC)c(OC)cc3C2)[C@H]2C(=O)O[C@H](c3ccccc3)[C@H](c3ccccc3)N2[C@@H]1c1ccc(O)cc1)C(=O)OC; met

Query string: Is the recorded value of composite z-score equal to or greater than 0.4 for this compound? `COCCOC(=O)N1C(=O)[C@@]2(c3cc(C#CCNC(N)=O)ccc31)[C@H](C(=O)N1CCCCCCC1)[C@H]1C(=O)O[C@H](c3ccccc3)[C@H](c3ccccc3)N1[C@@H]2c1ccc(OCCO)cc1`
Result string: not met

Query string: State whether the measured composite z-score reaches 0.4, counting equality as reaching it, for O=C1C2C=CC(C(O)c3cccc4ccccc34)N(Nc3ccccc3)C2C(=O)N1c1ccccc1 (centres undefined)
Result string: not met

Query string: Does the compound CC(C)c1ccc(NN2C(C(O)c3ccccn3)C=CC3C(=O)N(c4ccccc4)C(=O)C32)cc1 (centres undefined) have recorded composite z-score that is 0.4 or more?
Result string: met

Query string: Say whether `O=C1c2ccccc2[C@](Cc2ccccc2I)(C(=O)NCC(F)(F)F)[C@H](c2ccc(CO)cc2)N1Cc1ccccc1` shows composite z-score of 0.4 or more.
Result string: not met

----------
Tested on: Neuregulin-1 EGF-like domain
assayOverview: small molecules binding NRG1 EGF domain – biochemical, small-molecule microarray, 635 nm fluorescence, primary screen (AID 1081);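 further: binding of the protein to compounds printed on small-molecule microarray slides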
experimentalContext: higher = more signal
Measured composite z-score, listed per entry for reference.
Number only, no unit.

Some molecules with recorded composite z-score:
C=C(/C(=C/C[C@@H](OC(=O)c1ccncc1)c1cccc(OCCO)c1)c1cc(C(=O)OC)ccc1OC)C(C)C; 0.981
COCCOC(=O)N1C(=O)[C@@]2(c3cc(C#CCNC(N)=O)ccc31)[C@H](C(=O)N1CCCCCCC1)[C@H]1C(=O)O[C@H](c3ccccc3)[C@H](c3ccccc3)N1[C@@H]2c1ccc(OCCO)cc1; 0.0222

GET /value?item= C[C@H]1NC(=O)C([C@@H](C)OCc2ccccc2)NC(=O)[C@@]23C(=O)N[C@@H](Cc4ccccc4)C2[C@H](C)[C@@]2(C)O[C@H]2C3/C=C/CC/C=C/CNC1=O (stereo not given in full) &field=composite z-score returns -0.248

For reference, reported composite z-score for `COc1cc2c(cc1OC)CN(C(=O)[C@@H]1[C@H]3C(=O)O[C@H](c4ccccc4)[C@H](c4ccccc4)N3[C@H](c3ccc(OCCO)cc3)[C@@]13C(=O)Nc1ccc(C#CCCO)cc13)CC2` stands at 1.27

Quick note, composite z-score for C=CCC(OC(C)=O)[C@@H]1[C@@H](N(Cc2cccc3ccccc23)C(=O)Cc2ccc(F)cc2)c2cc(OCCCO)ccc2N1C(=O)Cc1ccc(OC)cc1 (stereo not given in full) landed at -0.424

----------
Overview of reported composite z-score across a group of compounds:
testTarget: Calmodulin-1 (Homo sapiens) (UniProt P0DP23)
assayOverview: small molecules binding Ca-loaded calmodulin-1 – biochemical, small-molecule microarray, Cy5-labelled CALM1, plus calcium, artefact control for SMM control-protein annotation, profiling panel (AID 1112);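 further: score merges spot fluorescence with signal to noise from triplicate slides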
experimentalContext: Cy5-CALM1 binding fluorescence, higher = more signal
I'd appreciate a reply containing only the number, no unit.

composite z-score reported for this compound `COC(=O)[C@@]1(Cc2ccc(OC)cc2)[C@H]2c3cc(C(=O)N4CCCC4)n(Cc4ccc(C)o4)c3C[C@H]2CN1C(=O)c1ccccc1` : 0.0918

Sure, the documented composite z-score for `CC(C)[Si](C#C[Si](C(C)C)(C(C)C)C(C)C)(O[C@H](C)c1cn(Cc2cccc(Cl)c2)nn1)C(C)C` is 0.506

Reported composite z-score of `CN(C)CCCNC(=O)[C@@]1(Cc2ccccc2I)c2ccccc2C(=O)N(Cc2ccccc2Cl)[C@H]1c1ccc(CO)cc1` : 0.775

----------
// reported z-score for each item listed
assayOverview: calcein-AM signal in unstimulated myeloma cells – cell-based, calcein-AM fluorescence, 48 h, PK04 Diversity Set, profiling panel (AID 1166);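 further: cells grown under basal conditions without added stimulus; test concentration not given here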
experimentalContext: RPMI8226 myeloma viability, higher = more signal
No unit in the answer, please; the number alone is enough.

// solved cases for z-score follow
CCOC(=O)C[C@H]1[C@H](OC(=O)Cc2ccc3c(c2)OCO3)[C@@H](NC(=O)c2ccccc2)c2cc(OCCCO)ccc2N1C(=O)c1ccccc1; 0.503
COC(=O)[C@@]1(Cc2ccc(OC)cc2)[C@H]2c3cc(C(=O)N4CCCC4)n(CCF)c3C[C@H]2CN1C(=O)c1ccccc1; -1.05

The compound listed as Cc1ccccc1C(O)C1C=CC2C(=O)N(Cc3ccccc3)C(=O)C2N1n1cnnc1 (stereo not given) shows z-score equal to 0.0991

// recorded z-score for `COCC(=C=CC[C@@H](O)c1ccccc1OCCO)C[C@@H](O)c1ccccn1` : 0.211

# z-score of `Cc1ccc(F)cc1S(=O)(=O)N[C@@H]1CCN(C(=O)c2ccc(OC(C)C)cc2)C1` = -0.705
